Kindly state CPC-AH activity (%) for each of the entries shown.
Target: UniProt A0A086SV17
Test: Effect of metals and inhibitors on CPC-AH B activity (HPLC test of DAC formation from CPC)
Format: biochemical, Acremonium chrysogenum
Details: metals 1 mM, pre-incubated 15 minutes at 4° C.; NONE = 100
// note: answer is a bare numeric in %

Entry O=S(=O)([O-])[O-].[Zn+2] [ZnSO4] : CPC-AH activity (%) on UniProt A0A086SV17 = 60

Log: UniProt A0A086SV17, compound O=S(=O)([O-])[O-].[Mn+2] [MnSO4] , CPC-AH activity (%) = 140

The recorded CPC-AH activity (%) with UniProt A0A086SV17 for O=C([O-])[O-].[K+].[K+] [K2CO3] was 77

Considering O=S(=O)([O-])[O-].[Fe+2] [FeSO4] , its CPC-AH activity (%) with UniProt A0A086SV17 was recorded as 49

For the compound O=S(=O)([O-])[O-].[Mg+2] [MgSO4] , the measured CPC-AH activity (%) on UniProt A0A086SV17 was 141

----------
Biological target: CPC-AH B (Hapsidospora chrysogena, UniProt A0A086SV17)
Sequence (A0A086SV17 107-383): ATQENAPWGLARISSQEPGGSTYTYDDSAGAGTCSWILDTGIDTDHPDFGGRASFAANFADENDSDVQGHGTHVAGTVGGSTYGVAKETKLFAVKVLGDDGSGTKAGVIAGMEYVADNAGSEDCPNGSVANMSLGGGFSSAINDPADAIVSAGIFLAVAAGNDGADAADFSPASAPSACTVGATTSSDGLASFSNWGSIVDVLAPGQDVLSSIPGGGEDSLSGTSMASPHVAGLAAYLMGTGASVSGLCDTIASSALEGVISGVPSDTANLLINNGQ
Experiment: Effect of metals and inhibitors on CPC-AH B activity (HPLC test of DAC formation from CPC)
Type: biochemical, Acremonium chrysogenum
Details: final concentration of the ions 1 mM
QUANTITY: Effect of metal ion on CPC-AH B activity

O=S(=O)([O-])[O-].[Mg+2] : stimulating effect
O=S(=O)([O-])[O-].[Mn+2] : stimulating effect
